Recorded TGI for the following compounds
tested on: M14 melanoma; experiment: NCI tumour cell line growth inhibition, 48 h
property.label: TGI

* Cc1cccc(-c2cc(=O)c3ccc(C)nc3[nH]2)c1 | > 100 µM
* COc1ccc(NC(=O)C(=O)NNC(=O)c2sc(NNC(C)=O)nc2C)c([N+](=O)[O-])c1 | > 100 µM
* Cc1cc(O)c2c(c1)C(=O)c1cc(O)cc(O)c1C2=O | 60.9 µM
* CCCCCCCCCCCCCCCCCCNc1ccn(C2OC(COP(=O)(O)O)C(O)C2O)c(=O)n1 (stereo not drawn) | > 100 µM
* O=c1c2cc(Br)ccc2oc2nc3n(c(=O)c12)CCCS3 | > 100 µM
* OC(c1cccs1)c1cc2ccccc2s1 (stereo not drawn) | > 10 µM
* COC(=O)[C@H]1[C@H](C(=O)OC)[C@@H](C)c2c(ccc3c2[nH]c2ccccc23)[C@@H]1C | > 100 µM
* O=C1Oc2ccccc2C(=O)/C1=C/N1C(=O)/C(=C/c2ccc([N+](=O)[O-])cc2)SC1=S | 65.6 µM
* O=C(O)c1c(CC(Cc2ccc3c(c2)CCCC3)C(=O)O)ccc2c1CCCC2 (stereo not drawn) | > 100 µM
* CCc1cccc(CC)c1NC(=S)NC(=O)c1ccc(Br)cc1 | > 81.2 µM
* CCCn1cnc2c(NN=O)ncnc21 | > 100 µM
* Cn1c(-c2csc(-c3ccc(Cl)cc3)n2)n[nH]c1=S | > 100 µM
* CN1N=C2c3ccccc3CC[C@H]2C1c1ccccc1 (stereo partly drawn) | > 100 µM
* COC(=O)C(NC(=O)CNC(=O)CSc1nnc(COc2ccc(Cl)cc2)n1-c1ccccc1)C(C)C (stereo not drawn) | 38.5 µM
* O=C1/C(=C/c2ccccc2)SC(=Nc2ccccc2)N1Nc1ccccc1 | 42.8 µM
* COC(=O)NCCc1[nH]nc2c1C(=O)C=C(OC)C2=O | 33.9 µM
* Cc1ccc(S(=O)(=O)Oc2ccc3c4c(c(=O)oc3c2)CCCCC4)cc1 | > 100 µM
* COc1ccc(/C=C2\CN(C)CC3=C2OC(N)=C(C#N)C3c2ccc(OC)cc2)cc1 (stereo not drawn) | > 100 µM
* N#CC1C(=N)Cc2ccccc2-c2ccccc21 (stereo not drawn) | 10.3 µM
* CCSc1nc2sc(C)c(C)c2c(=O)n1-c1ccc(C(=O)O)cc1 | > 100 µM
* CC1=C/C(=N/N2C(=O)/C(=C/c3ccc(Cl)cc3)N=C2c2ccccc2)CC(C)(C)C1 | > 100 µM
* COc1c2ccccc2c(O)c2c(=O)c(C(=O)O)cn(C)c12 | > 100 µM
* O=c1cccc(C#Cc2ccccc2)o1 | > 22.8 µM

---

system: MOLT-4 leukemia; experiment: NCI tumour cell line growth inhibition, 48 h
property.label: TGI (µM)

* COC(=O)C1OC(O[C@H]2CC[C@]3(C)[C@H]4CC=C5[C@@H]6CC(C)(C)CC[C@]6(C(=O)OC)[C@H](O)C[C@@]5(C)[C@]4(C)CC[C@H]3C2(C)C)C(O)C(O)C1O (stereo not given in full) | 25.2
* c1ccc2c(c1)CCc1c-2n(CCN2CCCCC2)c2ccccc12 | 44.8
* OC1C(O)C(O)C(O)C(O)C1O (stereo not given) | 916

---

tested on: HT29 colon; assay: NCI tumour cell line growth inhibition, 48 h; in the data active = GI50 below about 0.43 µM; inactive = the rest
Outcomes: True for active, False for inactive

- O=C(Nc1cnn2ccc(N3CCC[C@@H]3c3cc(F)ccc3F)nc12)N1CC[C@H](O)C1: False
- COc1ccc2cc(C(=O)/C=C/c3cccc(Cl)c3Cl)ccc2c1: False
- COc1cc2cc(Oc3ccc(NC(=O)Nc4ccccc4)cc3)c(C)nc2cc1OCCN1CCCCC1: False
- CC[C@@]1(O)C(=O)OCc2c1cc1n(c2=O)Cc2cc3cc(OC)ccc3nc2-1: True
- CC(=O)OCC1OC(OC2CC3C(C)(C)C(OC(C)=O)CC[C@]3(C)C3CCC45CC4(CC[C@H]5C(C)CC(O)C4OC4(C)C)[C@]23C)C(O)C(O)C1O (some centres undefined): False
- Cc1cc(S(=O)(=O)Nc2nc3ccsc3c(=O)n2Cc2ccco2)c(S)cc1Cl: False
- CN1CCN(c2ccc(-c3cnc4c(-c5csc6ccccc56)cnn4c3)cc2)CC1: False
- COc1cc(NN=C(c2ccc(O)cc2)c2ccc(O)cc2)c([N+](=O)[O-])cc1[N+](=O)[O-]: False
- C#CCN1CCN(C(=S)N/N=C(\C)c2ccccn2)CC1: True

---

Catalogue of TGI values
system: TK-10 renal; assay: NCI tumour cell line growth inhibition, 48 h
property.label: TGI (µM)

• O=C1C(Cl)=C(Nc2ccc3cn[nH]c3c2)C(=O)c2ccccc21 = 8.06
• O=[N+]([O-])CC(SCc1ccccc1)c1ccc2c(c1)OCO2 (stereo not given) = 25.2
• CCN1/C(=C/c2ccc3ccccc3[n+]2CC)C=Cc2ccccc21 = 26.4
• CN1CCN(CC(=O)Nc2ccc3ncnc(Nc4ccc(Oc5cccc(C(F)(F)F)c5)c(Cl)c4)c3c2)CC1 = 2.83
• Cc1cccc2sc(NC(=O)c3cc([N+](=O)[O-])ccc3Cl)nc12 = 11.4
• C=C(CNCCc1ccc(O)cc1)[C@@H]1CC[C@]2(CO)CC[C@]3(C)[C@H](CC[C@@H]4[C@@]5(C)CCC(=O)C(C)(C)[C@@H]5CC[C@]43C)[C@@H]12 = 3.19
• CCCCCCCCOc1ccc(/C=N/Nc2cc(C)nc3ccc(Cl)cc23)cc1 = 3.33
• CCCCCCCCCCCCCC1=NCC[N+]1(CCO)Cc1ccccc1 (stereo not given) = 3.28
• CO[C@H]1[C@H](O)[C@H](O[C@H]2CC[C@@]3(C)[C@H](CC[C@@H]4[C@@H]3CC[C@]3(C)[C@@H](C5=CC(=O)OC5)CC[C@]43O)C2)O[C@@H](C)[C@@H]1O = 0.00345
• Cc1ccc(NC(=O)CC(=O)n2nc(-c3ccccc3)c(N=Nc3ccc(Cl)cc3)c2-c2ccccc2)cc1 = 72
• NC(=O)c1[nH]nc(C2OC(CO)C(O)C2O)c1O (stereo not given) = 2320
• CN(C)c1ccc(/C=C/c2sc3ccc4ccccc4c3[n+]2C)cc1 = 1.92

---

The following compounds are shown together with reported TGI values.
system: HL-60(TB) leukemia; test: NCI tumour cell line growth inhibition, 48 h
property.label: TGI

• COc1cc(/C=C/C(=O)c2cc(F)c(Cl)cc2Cl)cc(OC)c1OC = 71.9 µM
• CCOC(=O)CCC(C(=O)OCC)n1nc2ccc(Nc3c(C)[n+]([O-])c4cc(Cl)ccc4[n+]3[O-])cc2n1 (centres undefined) = > 100 µM
• N=c1c2c3n(c4c(=O)n(-c5ccccc5)c(=S)n(c(=O)n1-c1ccccc1)c24)CCCCC3 = > 100 µM
• Nc1ccn([C@H]2C[C@@H](O)[C@@H](CO)S2)c(=O)n1 = > 100 µM
• CC[C@@]1(O)C(=O)OCc2c1cc1n(c2=O)Cc2cc3cc(OC)ccc3nc2-1 = 0.0172 µM
• NCCNCC(O)CO (centres undefined) = > 100 µM
• CC(=O)O[C@H]1[C@@H]2[C@@H]3[C@@H](C[C@H]1C)[C@@H](C)CO[C@@]1(C)CC/C=C(/C)C[C@@H]2O[C@@H]31 = > 100 µM
• Cc1ccc(S(=O)(=O)N2CCSCCSCCN(S(=O)(=O)c3ccc(C)cc3)CCN(S(=O)(=O)c3ccc(C)cc3)CC2)cc1 = > 100 µM
• COC(=O)c1ccc2n1C1CC3CC(CC2C3)C1 = 54.7 µM
• COC(=O)[C@H]1[C@H](C(=O)OC)[C@@H](C)c2c(ccc3c2[nH]c2ccccc23)[C@@H]1C = > 100 µM
• O=C(Nc1cnn2ccc(N3CCC[C@@H]3c3cc(F)ccc3F)nc12)N1CC[C@H](O)C1 = > 100 µM
• NC(=O)N/N=C(\Cc1nc2ccc(C(=O)c3ccccc3)cc2[nH]c1=O)C(=O)Nc1ccc(Br)cc1 = > 100 µM
• NC1=NC(c2ccccc2)N=C(Nc2ccccc2)N1 (centres undefined) = > 100 µM
• O=C(Oc1ccc([N+](=O)[O-])cc1)N1CCN(Cc2cccc(Oc3ccccc3)c2)CC1 = > 100 µM
• O=[N+]([O-])c1ccc(/C=C/c2ccc(N=Nc3ccc(/C=C/c4ccc([N+](=O)[O-])cc4S(=O)(=O)O)c(S(=O)(=O)O)c3)cc2S(=O)(=O)O)c(S(=O)(=O)O)c1 = > 100 µM
• CC(=O)Oc1ccn2nc(C)c(Br)c2c1Br = > 66.5 µM
• NC(=O)c1csc(C2C=CC(CO)O2)n1 (centres undefined) = > 100 µM
• COC(=O)NCCc1[nH]nc2c1C(=O)C=C(OC)C2=O = 44 µM
• COc1cc2c3c(n(CCCN)c(=O)c2cc1OC)-c1ccc(F)cc1C3=O = 24.9 µM
